These measurements were taken from patent US20080280837A1.

# subjectOfTest: Human SST5 somatostatin receptor (SSTR5) (Homo sapiens)
# Construct: expressed in transfected cells; host or cells: HEK-293 EBNA
# runDescription: Filter plate assay for SST5 receptor, displacement of [125I]SST-14
# Type: binding
# recordedConditions: 10 uM
outcomeMeasure: SSTR5 Inhib 10 uM % (inhibition of binding of SST-14 to SSTR5) (%)
Unit % implied. Number only.

COC[C@H]1OC(OCCc2ccccc2)[C@H](NC(=O)CCCNC(=N)N)[C@@H](OCc2ccc(Cl)cc2)[C@@H]1O (stereo partly drawn) [Compound 98]: 84
COC[C@H]1OC(OCc2ccc(Cl)cc2)[C@H](NC(=O)CCCNC(=N)N)[C@@H](OCc2ccc(-c3ccccc3)cc2)[C@@H]1O (stereo partly drawn): 85

Attention now shifts to the item below.
# query: SSTR5 Inhib 10 uM % (inhibition of binding of SST-14 to SSTR5) of entry COC1C(O)C(COCc2ccc(-c3ccccc3)cc2)OC(OCc2ccc(-c3ccccc3)cc2)C1NC(=O)CCNC(=N)N (stereo not drawn)
79

###

# subjectOfTest: Human SST5 somatostatin receptor (SSTR5) (Homo sapiens, UniProt P35346)
# Construct: expressed in transfected cells; host or cells: HEK-293 EBNA
# Sequence (P35346 whole entry): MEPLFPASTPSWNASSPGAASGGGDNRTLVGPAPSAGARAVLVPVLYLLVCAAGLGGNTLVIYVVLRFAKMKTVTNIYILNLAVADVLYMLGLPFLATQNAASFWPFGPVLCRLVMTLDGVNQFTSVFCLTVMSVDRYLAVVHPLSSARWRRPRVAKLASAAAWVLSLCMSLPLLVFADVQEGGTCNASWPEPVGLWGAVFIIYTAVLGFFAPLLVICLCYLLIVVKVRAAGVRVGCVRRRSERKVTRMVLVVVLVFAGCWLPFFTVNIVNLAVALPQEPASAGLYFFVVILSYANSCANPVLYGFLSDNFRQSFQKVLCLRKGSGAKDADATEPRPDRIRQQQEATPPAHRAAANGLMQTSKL
# runDescription: Filter plate assay for SST5 receptor, displacement of [125I]SST-14
# Type: binding
# recordedConditions: 10 uM
outcomeMeasure: SSTR5 Inhib 10 uM % (inhibition of binding of SST-14 to SSTR5) (%)
Unit % implied. Number only.

Examples with their reported SSTR5 Inhib 10 uM % (inhibition of binding of SST-14 to SSTR5) follow.
COC[C@H]1OC(OCc2ccc(-c3ccccc3)cc2)[C@H](NC(=O)CCCNC(=N)N)[C@@H](OCc2ccc(-c3ccccc3)cc2)[C@@H]1O (stereo partly drawn) [Compound 58]: 91
COC[C@H]1OC(OCc2ccc(Cl)cc2)[C@H](NC(=O)CCCN)[C@H](OCc2ccc3ccccc3c2)[C@@H]1O (stereo partly drawn): 96
COC[C@H]1OC(OCCc2ccccc2)[C@H](NC(=O)CCCNC(=N)N)[C@@H](OCc2ccc(-c3ccccc3)cc2)[C@@H]1O (stereo partly drawn): 80
CSC1O[C@H](COCc2ccc3ccccc3c2)[C@@H](O)[C@@H](OCc2ccc(-c3ccccc3)cc2)[C@H]1NC(=O)CN (stereo partly drawn): 85
COC[C@H]1OC(OCc2ccc(Cl)cc2)[C@H](NC(=O)CNC(=N)N)[C@H](OCc2ccc3ccccc3c2)[C@@H]1O (stereo partly drawn): 75

Attention now shifts to the item below.
# query: SSTR5 Inhib 10 uM % (inhibition of binding of SST-14 to SSTR5) of entry COC[C@H]1OC(OCc2ccc(-c3ccccc3)cc2)[C@H](NC(=O)CCCNC(=N)N)[C@@H](OCc2ccc(-c3ccccc3)cc2)[C@@H]1O (stereo partly drawn) [Compound 130]
80

###

# subjectOfTest: Human SST5 somatostatin receptor (SSTR5) (Homo sapiens, UniProt P35346)
# Construct: expressed in transfected cells; host or cells: HEK-293 EBNA
# runDescription: Filter plate assay for SST5 receptor, displacement of [125I]SST-14
# Type: binding
# recordedConditions: concentration required to displace 50% of the competitive radioligand; read-out: IC50 SSTR5
# Description: Receptor membrane preparations containing the desired cloned receptor (for example cloned human somatostatin receptor subtype 5, SSTR5) and radio-labeled ligand (for example 3-[^125I]iodotyrosyl^11 Somatostatin-14)) were diluted at the concentration required for testing and according to the specific parameters associated with the selected receptor-ligand combination, including receptor Bmax, ligand Kd and any other parameters necessary to optimize the experimental conditions. […]
outcomeMeasure: pIC50
# log scale: pIC50 equals minus log10 of the concentration in mol/L

# query: pIC50 of entry COC[C@H]1O[C@H](OCCc2ccccc2)[C@H](NC(=O)CCCN)[C@@H](OCc2ccc3ccccc3c2)[C@@H]1O
6.49

###

# runDescription: In vivo pharmacokinetic evaluation after i.v. and p.o. administration to rats
# Design: species or system rat
# recordedConditions: rat, plasma, iv, 2 mg/Kg, Rat 1, IV infusion 2 mg/Kg over 5 minutes
outcomeMeasure: Cmax (µM)
Unit µM implied. Number only.

# query: Cmax of entry COC[C@H]1O[C@H](OCCc2ccccc2)[C@H](NC(=O)CCCN)[C@@H](OCc2ccc3ccccc3c2)[C@@H]1O
30.3

###

Reported SSTR5 Inhib 0.5 uM % (inhibition of binding of SST-14 to SSTR5) values for a set of compounds
# subjectOfTest: Human SST5 somatostatin receptor (SSTR5) (Homo sapiens)
# Construct: expressed in transfected cells; host or cells: HEK-293 EBNA
# runDescription: Filter plate assay for SST5 receptor, displacement of [125I]SST-14
# Format: binding
# recordedConditions: 0.5 uM
Unit % implied. Number only.

Examples with their reported SSTR5 Inhib 0.5 uM % (inhibition of binding of SST-14 to SSTR5) follow.
COC[C@H]1OC(OCc2ccc(Cl)cc2)[C@H](NC(=O)CCCNC(=N)N)[C@@H](OCc2ccc3ccccc3c2)[C@@H]1O (stereo partly shown): 40
COC[C@H]1OC(OCc2ccc3ccccc3c2)[C@H](NC(=O)CCCNC(=N)N)[C@@H](OCc2ccc(Cl)cc2)[C@@H]1O (stereo partly shown) [Compound 23]: 80
COC1C(O)C(COCc2ccc(Cl)cc2)OC(OCc2ccc(-c3ccccc3)cc2)C1NC(=O)CCNC(=N)N (stereo not shown): 43

# query: SSTR5 Inhib 0.5 uM % (inhibition of binding of SST-14 to SSTR5) of entry NCCC(=O)N[C@H]1CO[C@H](COCc2ccc(-c3ccccc3)cc2)[C@@H](O)[C@H]1OCc1ccc(Cl)cc1
50

# query: SSTR5 Inhib 0.5 uM % (inhibition of binding of SST-14 to SSTR5) of entry CO[C@H]1[C@H](O)[C@@H](COCc2ccc(-c3ccccc3)cc2)OC(OCc2ccc(Cl)cc2)[C@@H]1NC(=O)CCCNC(=N)N (stereo partly shown)
48

###

Reported SSTR5 Inhib 0.5 uM % (inhibition of binding of SST-14 to SSTR5) values for a set of molecules
# subjectOfTest: Human SST5 somatostatin receptor (SSTR5) (Homo sapiens, UniProt P35346)
# Construct: expressed in transfected cells; host or cells: HEK-293 EBNA
# runDescription: Filter plate assay for SST5 receptor, displacement of [125I]SST-14
# Type: binding
# recordedConditions: 0.5 uM
# Description: Receptor membrane preparations containing the desired cloned receptor (for example cloned human somatostatin receptor subtype 5, SSTR5) and radio-labeled ligand (for example 3-[^125I]iodotyrosyl^11 Somatostatin-14)) were diluted at the concentration required for testing and according to the specific parameters associated with the selected receptor-ligand combination, including receptor Bmax, ligand Kd and any other parameters necessary to optimize the experimental conditions. […]
State the value with its unit after it.

Examples with their reported SSTR5 Inhib 0.5 uM % (inhibition of binding of SST-14 to SSTR5) follow.
COC[C@H]1OC(OCc2ccc3ccccc3c2)[C@H](NC(=O)CNC(=N)N)[C@H](OCc2ccc3ccccc3c2)[C@@H]1O (stereo partly shown) [Compound 174]: 31%
COC[C@H]1OC(OCc2ccccc2)[C@H](NC(=O)CCNC(=N)N)[C@H](OCc2ccc3ccccc3c2)[C@@H]1O (stereo partly shown) [Compound 53]: 58%
COC[C@H]1OC(OCc2ccccc2)[C@H](NC(=O)CCN)[C@H](OCc2ccc(Cl)cc2)[C@@H]1O (stereo partly shown) [Compound 22]: 80%

# query: SSTR5 Inhib 0.5 uM % (inhibition of binding of SST-14 to SSTR5) of entry COC[C@H]1OC(OCc2ccccc2)[C@H](NC(=O)CCCN)[C@@H](OCc2ccc(-c3ccccc3)cc2)[C@@H]1O (stereo partly shown) [Compound 95]
44%

# query: SSTR5 Inhib 0.5 uM % (inhibition of binding of SST-14 to SSTR5) of entry CSC1O[C@H](COCc2ccc(-c3ccccc3)cc2)[C@@H](O)[C@@H](OCc2ccc3ccccc3c2)[C@H]1NC(=O)CNC(=N)N (stereo partly shown) [Compound 139]
34%

# query: SSTR5 Inhib 0.5 uM % (inhibition of binding of SST-14 to SSTR5) of entry CSC1O[C@H](COCc2ccccc2)[C@@H](O)[C@@H](OCc2ccc3ccccc3c2)[C@H]1NC(=O)CNC(=N)N (stereo partly shown) [Compound 72]
51%

# query: SSTR5 Inhib 0.5 uM % (inhibition of binding of SST-14 to SSTR5) of entry COC[C@H]1OC(OCCc2ccccc2)[C@H](NC(=O)CCCNC(=N)N)[C@@H](OCc2ccc(-c3ccccc3)cc2)[C@@H]1O (stereo partly shown) [Compound 132]
39%

# query: SSTR5 Inhib 0.5 uM % (inhibition of binding of SST-14 to SSTR5) of entry CSC1O[C@H](COCc2ccccc2)[C@@H](O)[C@@H](OCc2ccc3ccccc3c2)[C@H]1NC(=O)CCN (stereo partly shown) [Compound 109]
44%

# query: SSTR5 Inhib 0.5 uM % (inhibition of binding of SST-14 to SSTR5) of entry COC[C@H]1OC(OCc2ccc(-c3ccccc3)cc2)[C@H](NC(=O)CCCN)[C@@H](OCc2ccc(-c3ccccc3)cc2)[C@@H]1O (stereo partly shown) [Compound 31]
85%

# query: SSTR5 Inhib 0.5 uM % (inhibition of binding of SST-14 to SSTR5) of entry CSC1O[C@H](COCc2ccc(Cl)cc2)[C@@H](O)[C@@H](OCc2ccc3ccccc3c2)[C@H]1NC(=O)CCNC(=N)N (stereo partly shown) [Compound 125]
34%

# query: SSTR5 Inhib 0.5 uM % (inhibition of binding of SST-14 to SSTR5) of entry CO[C@H]1[C@H](O)[C@@H](COCc2ccc(Cl)cc2)OC(OCc2ccc(Cl)cc2)[C@@H]1NC(=O)CCNC(=N)N (stereo partly shown) [Compound 152]
47%

# query: SSTR5 Inhib 0.5 uM % (inhibition of binding of SST-14 to SSTR5) of entry COC[C@H]1OC(OCc2ccc(-c3ccccc3)cc2)[C@H](NC(=O)CCCN)[C@@H](OCc2ccc3ccccc3c2)[C@@H]1O (stereo partly shown) [Compound 38]
79%

# query: SSTR5 Inhib 0.5 uM % (inhibition of binding of SST-14 to SSTR5) of entry COC[C@H]1OC(OCc2ccc(Cl)cc2)[C@H](NC(=O)CCNC(=N)N)[C@@H](OCc2ccc(Cl)cc2)[C@@H]1O (stereo partly shown) [Compound 123]
40%
